- run.description: Pharmacokinetics of CD101 after single 30 mg/kg SC (vs IV) dose in monkeys
- Format: in vivo
- experimental.setup: cynomolgus monkey, plasma; IV 30 mg/kg
Starred links: 1 amine or outer side, 2 acyl side, 3 side chain; linkers in the order of their positions; H or OH if unused. Positions of bridges follow the written chain, without caps; N, C: chain ends. Non-standard residues stand in square brackets, D forms with d. Residues, ends and D or L forms follow the SMILES beside them. *: point of attachment. Orn(4R-OH,5R-OCH2CH2NMe3+) = C[N+](C)(C)CCO[C@@H](N[*:3])[C@H](O)C[C@H](N[*:1])C(=O)[*:2]; pTerphenylCO(4''-OnC5H11) = CCCCCOc1ccc(-c2ccc(-c3ccc(C(=O)*)cc3)cc2)cc1; hTyr(3S-OH,4S-OH) = N[C@H](C(=O)O)[C@H](O)[C@@H](O)c1ccc(O)cc1; Pro(3S-OH,4S-Me) = C[C@H]1CN[C@H](C(=O)O)[C@H]1O; Hyp = O=C(O)[C@@H]1C[C@@H](O)CN1
measured.attribute: AUC(0-t) (µg·h/mL)
Respond numerically; units are µg·h/mL and should not be typed.

Q: Find the measured AUC(0-t) of CCCCCOc1ccc(-c2ccc(-c3ccc(C(=O)N[C@H]4C[C@@H](O)[C@@H](OCC[N+](C)(C)C)NC(=O)[C@@H]5[C@@H](O)[C@@H](C)CN5C(=O)[C@H]([C@@H](C)O)NC(=O)[C@H]([C@H](O)[C@@H](O)c5ccc(O)cc5)NC(=O)[C@@H]5C[C@@H](O)CN5C(=O)[C@H]([C@@H](C)O)NC4=O)cc3)cc2)cc1 [CD101] ({pTerphenylCO(4''-OnC5H11)}-[Orn(4R-OH,5R-OCH2CH2NMe3+)]T[Hyp][hTyr(3S-OH,4S-OH)]T[Pro(3S-OH,4S-Me)]; lactam 1-C) and report it.
A: 3140
